Assay: Storage stability of crystals of 2′,3′-dideoxyinosine (increase of hypoxanthine after storage, HPLC)
Assay type: physicochemical
Conditions: crystals stored at 60° C., at RH75% for 7 days; Table 1
Under this convention, TRUE denotes Increase of hypoxanthine after storage (%/DDI) strictly below 2 %/DDI and FALSE denotes Increase of hypoxanthine after storage (%/DDI) at or above 2 %/DDI.

Worked examples follow.
OC[C@@H]1CC[C@H](n2cnc3c(O)ncnc32)O1 [Comp. Ex. 3, 2′,3′-dideoxyinosine, reference compound]
FALSE
OC[C@@H]1CC[C@H](n2cnc3c(O)ncnc32)O1 [Ex. 4, 2′,3′-dideoxyinosine]
TRUE
OC[C@@H]1CC[C@H](n2cnc3c(O)ncnc32)O1 [Comp. Ex. 2, 2′,3′-dideoxyinosine, reference compound]
TRUE
OC[C@@H]1CC[C@H](n2cnc3c(O)ncnc32)O1 [Ex. 1, 2′,3′-dideoxyinosine]
TRUE
OC[C@@H]1CC[C@H](n2cnc3c(O)ncnc32)O1 [Comp. Ex. 4, 2′,3′-dideoxyinosine, reference compound]
FALSE
OC[C@@H]1CC[C@H](n2cnc3c(O)ncnc32)O1 [Ex. 3, 2′,3′-dideoxyinosine]
TRUE
OC[C@@H]1CC[C@H](n2cnc3c(O)ncnc32)O1 [Comp. Ex. 1, 2′,3′-dideoxyinosine, reference compound]
FALSE

INPUT: I wonder whether OC[C@@H]1CC[C@H](n2cnc3c(O)ncnc32)O1 [Ex. 2, 2′,3′-dideoxyinosine] has Increase of hypoxanthine after storage (%/DDI) below 2 %/DDI. Can you tell?
OUTPUT: TRUE
